Target: T1, full-length human IL-36R on cells (human, UniProt Q9HB29 20-575)
T1 sequence (looked up): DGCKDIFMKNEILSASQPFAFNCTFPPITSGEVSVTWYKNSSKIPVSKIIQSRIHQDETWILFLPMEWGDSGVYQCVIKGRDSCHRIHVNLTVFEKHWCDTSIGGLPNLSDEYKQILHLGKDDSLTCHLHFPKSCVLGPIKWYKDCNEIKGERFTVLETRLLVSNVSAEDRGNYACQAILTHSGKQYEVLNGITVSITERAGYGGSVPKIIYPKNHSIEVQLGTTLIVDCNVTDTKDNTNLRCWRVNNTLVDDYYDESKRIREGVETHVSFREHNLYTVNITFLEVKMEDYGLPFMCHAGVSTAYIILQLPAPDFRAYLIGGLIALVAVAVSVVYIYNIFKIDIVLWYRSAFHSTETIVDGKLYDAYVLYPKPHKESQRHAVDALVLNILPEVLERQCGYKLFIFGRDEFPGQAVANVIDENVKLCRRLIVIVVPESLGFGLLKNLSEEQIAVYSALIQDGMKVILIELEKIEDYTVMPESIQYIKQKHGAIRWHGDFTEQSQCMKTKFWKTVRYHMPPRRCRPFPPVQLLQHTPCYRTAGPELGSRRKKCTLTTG
Test: cell-based or functional assay
Could you please report measured Max Inhibition (%), NFκB-luciferase, 15 pM hIL-36β for the items listed next?
Numbers only, in %.

Completed entries (count: 2):
[[record]]
binder = "H4H14731P (antibody, human IgG4 S228P, kappa, V domains shown) VH: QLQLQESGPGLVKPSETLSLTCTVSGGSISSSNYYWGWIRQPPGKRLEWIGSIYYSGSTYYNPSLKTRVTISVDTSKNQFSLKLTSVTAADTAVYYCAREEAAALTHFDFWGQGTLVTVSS VL: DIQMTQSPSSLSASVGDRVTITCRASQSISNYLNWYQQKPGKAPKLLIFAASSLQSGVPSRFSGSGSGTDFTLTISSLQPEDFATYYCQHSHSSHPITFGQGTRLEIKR"
measurement_unit = "%"
reported_measurement = 99

[[record]]
binder = "H4H14699P2 (antibody, human IgG4 S228P, kappa, V domains shown, Fully human anti-IL-36R antibody) VH: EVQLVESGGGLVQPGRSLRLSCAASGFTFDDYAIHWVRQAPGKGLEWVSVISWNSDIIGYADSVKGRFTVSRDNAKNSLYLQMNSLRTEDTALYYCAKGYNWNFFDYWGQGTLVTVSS VL: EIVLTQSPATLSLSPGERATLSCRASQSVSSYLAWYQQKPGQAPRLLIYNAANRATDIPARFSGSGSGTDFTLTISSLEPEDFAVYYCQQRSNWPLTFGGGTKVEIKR"
measurement_unit = "%"
reported_measurement = 100


Now examine the next entry.
The measured Max Inhibition (%), NFκB-luciferase, 15 pM hIL-36β associated with H4H14706P2 (antibody, human IgG4 S228P, kappa, V domains shown) VH: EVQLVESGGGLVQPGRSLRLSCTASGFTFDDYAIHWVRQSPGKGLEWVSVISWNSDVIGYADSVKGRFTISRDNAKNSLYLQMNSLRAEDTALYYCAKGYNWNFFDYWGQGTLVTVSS VL: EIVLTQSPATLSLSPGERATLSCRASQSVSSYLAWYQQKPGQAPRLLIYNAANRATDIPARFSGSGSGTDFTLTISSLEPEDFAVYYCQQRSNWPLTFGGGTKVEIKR reads 101

The measured values listed here are drawn from patent US20200017592A1.
